system: NCI/ADR-RES ovarian; test: NCI tumour cell line growth inhibition, 48 h
Consider the following molecules; for each one, report its TGI.

Form: molecule = FC(F)(F)c1ccccc1C1SCC2=Nc3ccccc3CN21 (stereo not given) ; TGI = 35.7 µM

Form: molecule = Cc1ccc(CNc2ccc(Br)cc2)cc1 ; TGI = > 100 µM

Form: molecule = O=[N+]([O-])c1ccc(SN=S=NSc2cccc(SN=S=NSc3ccc([N+](=O)[O-])cc3)c2)cc1 ; TGI = > 100 µM

Form: molecule = CCCn1c2c(c3ccccc3c1=O)C(=O)c1ccccc1-2 ; TGI = > 100 µM

Form: molecule = CN=C(N)c1ccc(N=C(N)c2ccc(-c3ccc(C(N)=Nc4ccc(C(N)=NC)cc4)cc3)cc2)cc1 ; TGI = > 100 µM

Form: molecule = CC(=O)OI1NC(=O)c2ccccc21 ; TGI = > 100 µM

Form: molecule = O=c1[nH]/c(=C/c2ccc3c(c2)OCO3)c(=O)[nH]/c1=C/c1ccc2c(c1)OCO2 ; TGI = > 10 µM

Form: molecule = COc1ccc(-n2c(CCC(=O)O)nc3c2C(=O)c2ccccc2C3=O)cc1 ; TGI = > 100 µM

Form: molecule = O=C/C(=C1/C=Cc2cc([N+](=O)[O-])ccc2S1)c1ccccc1 ; TGI = > 100 µM

Form: molecule = CC1(C)OP(=O)(c2ccccc2)C=C1Sc1ccc([N+](=O)[O-])cc1[N+](=O)[O-] (stereo not given) ; TGI = > 100 µM
